Field: Cell viability (%) 25 µM. Provide a value for each of the compounds that follow.
Test system: LLC-MK2 cells
Conditions: 24 h incubation, peptide 25 µM, resazurin assay
Peptide text beside a SMILES is read from it.
Report the figure in % without appending any unit label.

Please report Cell viability (%) 25 µM for the following compound: CSCC[C@H](NC(=O)[C@@H](NC(=O)[C@@H](NC(=O)[C@H](CCCCN)NC(=O)[C@@H](N)CO)C(C)C)[C@@H](C)O)C(=O)N[C@H](C(=O)N[C@@H](CS)C(=O)N[C@@H](CO)C(=O)N[C@@H](C)C(=O)N[C@@H](CO)C(=O)O)[C@@H](C)O [Peptide S10S] (H-SKVTMTCSAS-OH)
99.75

Supply Cell viability (%) 25 µM value. Item: CSCC[C@H](NC(=O)[C@@H](NC(=O)[C@@H](NC(=O)[C@H](CCCCN)NC(=O)[C@@H](N)CC(C)C)C(C)C)[C@@H](C)O)C(=O)N[C@H](C(=O)N[C@@H](CS)C(=O)N[C@@H](CO)C(=O)N[C@@H](C)C(=O)N[C@@H](CO)C(=O)O)[C@@H](C)O [Peptide L10S] (H-LKVTMTCSAS-OH)
93.44

Read the entry CSCC[C@H](NC(=O)[C@@H](NC(=O)[C@@H](NC(=O)[C@H](CCCCN)NC(=O)[C@@H](N)Cc1ccc(O)cc1)C(C)C)[C@@H](C)O)C(=O)N[C@H](C(=O)N[C@@H](CS)C(=O)N[C@@H](CO)C(=O)N[C@@H](C)C(=O)N[C@@H](CO)C(=O)O)[C@@H](C)O [Peptide Y10S] (H-YKVTMTCSAS-OH) and write its reported Cell viability (%) 25 µM.
95.35
